# system: T1, β-catenin (UniProt P35222 1-781, limits assumed)
# T1 construct: also called beta-catenin
# T1 sequence (looked up): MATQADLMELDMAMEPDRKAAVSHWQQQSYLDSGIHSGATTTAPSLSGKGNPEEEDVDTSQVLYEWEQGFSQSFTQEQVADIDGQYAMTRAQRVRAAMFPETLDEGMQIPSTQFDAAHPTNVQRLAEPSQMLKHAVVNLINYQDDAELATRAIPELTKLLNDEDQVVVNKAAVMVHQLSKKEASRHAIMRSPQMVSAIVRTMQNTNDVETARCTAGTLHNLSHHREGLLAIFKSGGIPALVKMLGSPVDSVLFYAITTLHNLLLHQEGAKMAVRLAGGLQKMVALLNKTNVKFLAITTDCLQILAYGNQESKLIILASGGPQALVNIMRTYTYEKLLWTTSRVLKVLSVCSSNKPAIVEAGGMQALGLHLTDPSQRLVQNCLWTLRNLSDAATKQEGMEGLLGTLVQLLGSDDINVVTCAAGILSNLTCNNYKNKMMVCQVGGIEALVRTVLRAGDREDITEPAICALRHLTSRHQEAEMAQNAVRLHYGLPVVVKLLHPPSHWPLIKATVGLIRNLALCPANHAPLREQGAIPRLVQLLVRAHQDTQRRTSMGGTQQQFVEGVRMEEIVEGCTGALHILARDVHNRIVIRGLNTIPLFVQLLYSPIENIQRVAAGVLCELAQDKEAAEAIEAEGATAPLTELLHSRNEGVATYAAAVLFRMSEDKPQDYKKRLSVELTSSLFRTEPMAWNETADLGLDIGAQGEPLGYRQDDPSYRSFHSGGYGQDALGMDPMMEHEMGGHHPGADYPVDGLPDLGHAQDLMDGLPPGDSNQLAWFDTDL
# test: ALPHA Screen (BCL9/β-catenin);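 also: bead proximity readout with the polypeptide linked to donor beads and β-catenin fixed on acceptor beads, their binding bringing the beads close enough to emit signal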
Bridges are numbered along the chain shown (N, C = ends). Where no end group is shown, it is not given here. [ ]: non-standard residue; d: D form. 2Nal = N[C@@H](Cc1ccc2ccccc2c1)C(=O)O; hArg = N=C(N)NCCCC[C@H](N)C(=O)O; Cba = N[C@@H](CC1CCC1)C(=O)O; S5 = C=CCCC[C@](C)(N)C(=O)O; Nle = CCCC[C@H](N)C(=O)O; βAla = NCCC(=O)O
Exercise: for every item that follows, state its recorded IC50.
One number for each entry, in nM.

Solved cases (2 shown):
binder: Ac-HRQRSLQTLR[S5]IQ[hArg][S5][Cba][2Nal]-NH2 (staple 11-15) [SEQ ID NO: 171]
readout-label: IC50
val: 340

binder: LR[Nle]IQR[Nle]L[2Nal][βAla][βAla] [SEQ ID NO: 49]
readout-label: IC50
val: 6710

Field: next binder
Prompt: Give IC50 for Ac-HRERSLQTLR[S5]IQR[S5]L[2Nal]-NH2 (staple 11-15; not fully specified; printed as HRERSLQTLRXIQRXL(2-Nal)) [SEQ ID NO: 6]
Completion: 670

Origin of values: patent US20200262867A1
